Target: Calpain-1 catalytic subunit (Homo sapiens, UniProt P07384)
Sequence (P07384 whole entry): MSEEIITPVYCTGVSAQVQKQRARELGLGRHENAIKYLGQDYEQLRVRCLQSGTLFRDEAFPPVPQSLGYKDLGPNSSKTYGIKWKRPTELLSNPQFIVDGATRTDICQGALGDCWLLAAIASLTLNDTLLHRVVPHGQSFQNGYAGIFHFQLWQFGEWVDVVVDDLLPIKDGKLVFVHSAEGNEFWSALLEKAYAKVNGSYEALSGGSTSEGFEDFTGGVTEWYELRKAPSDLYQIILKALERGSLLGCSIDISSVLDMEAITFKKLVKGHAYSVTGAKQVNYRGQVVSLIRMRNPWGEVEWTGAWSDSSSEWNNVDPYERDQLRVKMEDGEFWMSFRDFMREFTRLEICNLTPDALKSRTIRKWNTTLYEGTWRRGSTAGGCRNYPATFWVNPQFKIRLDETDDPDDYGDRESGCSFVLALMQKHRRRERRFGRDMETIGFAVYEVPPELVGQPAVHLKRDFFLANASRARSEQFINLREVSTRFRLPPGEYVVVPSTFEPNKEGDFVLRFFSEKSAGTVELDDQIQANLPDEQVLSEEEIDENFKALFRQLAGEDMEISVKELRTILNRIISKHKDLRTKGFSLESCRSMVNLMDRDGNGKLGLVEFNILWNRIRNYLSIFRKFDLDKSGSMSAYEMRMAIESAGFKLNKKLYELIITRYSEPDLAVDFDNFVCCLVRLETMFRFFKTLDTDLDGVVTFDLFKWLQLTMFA
Test: Inhibitory activity against calpain
metric: pIC50
// pIC50 is dimensionless: -log10 of concentration (M)

**Q:** I am curious: what pIC50 value has been reported for NC(=O)CCc1cc[nH]c1 ?
**A:** 5.85

Source listed as ChEMBL document CHEMBL1129109.
